Test system: A549/ATCC NSCLC
Assay: NCI-60 one-dose screen, 48 h
Conditions: 10 µM unless noted
The panel holds about 83,000 compounds, 20% with a hit somewhere; the sample as a whole holds those more often. Active and inactive are the calls of the source. Rule for the calls: active = growth percent below 10; inactive = the rest.
Outcomes: active, inactive

| compound | assigned class |
| --- | --- |
| COc1ccc([C@H]2[C@H](O)C(=O)N2c2cc(OC)c(OC)c(OC)c2)cc1O | inactive |
| O=C(NNc1nc2cc(F)ccc2n2cncc12)c1cnccn1 | inactive |
| CCCCCCNC(=O)Oc1ccc(/C(=C(/C)c2ccc(Cl)cc2)c2ccc(OCCN3CCCC3)cc2)cc1 | inactive |
| Clc1ccc(-c2nc3ccc(/C(=N\N=C\c4ccccc4)c4ccccc4)cc3[nH]2)cc1 | inactive |
| Cc1ccc(/C=C/CC(=O)Nc2ccc(C(=O)Nc3ccc(F)cc3N)cc2)cn1 | inactive |
| O=C(CCCCCCN1CC(=O)N2[C@@H](c3cccc(Br)c3)c3[nH]c4ccccc4c3C[C@H]2C1=O)NO | inactive |
| CC1CCc2c(sc3nc(SCC(=O)N/N=C/c4cccc(O)c4O)n(-c4ccccc4)c(=O)c23)C1 (configuration not stated) | inactive |
| CCOC(=O)c1c(Nc2ccccc2)nn2c(-c3ccc(Br)cc3)ccnc12 | inactive |
| CS(=O)(=O)c1nccc(-c2c(-c3ccc(F)c(OCc4ccccc4)c3)nc3sccn23)n1 | inactive |
| CCCCCCCCCC[C@@H](C)[C@@H]1CC(=O)N[C@H]([C@@H](C)O)C(=O)N[C@@H](C)C(=O)N[C@H](C)C(=O)N[C@@H](CCC(N)=O)C(=O)N[C@H](Cc2ccc(O)cc2)C(=O)N[C@@H](C(C)CC)C(=O)O1 (some centres not stated) | inactive |
| O=C(Nc1cccc(-c2nc(-c3ccc(NC(=O)c4cccnc4)cc3Cl)no2)c1)Nc1ccc(NC(=O)C2CC2)c(C(F)(F)F)c1 | active |
| Cc1ccc(NC(=O)c2cccc(CN3CCN(C)CC3)c2)cc1Oc1ccc(-c2[nH]nc3ncnc(N)c23)cc1 | inactive |
| O=C(Nc1ccc(Cl)cc1)Nc1nc2ccc([N+](=O)[O-])cc2s1 | active |
| COc1ccc(/C(C)=C(\c2ccc(Cl)cc2)c2ccc(OCCN)cc2)cc1 | inactive |
| CCOC(=O)c1c(NCC(=O)Nc2cccc(Cl)c2)sc2c1CCCC2 | inactive |
| CCCC(=O)NC(c1cccnc1)c1cc(C(C)=O)c2cccnc2c1O (configuration not stated) | inactive |
| CC(C)=CCc1c(O)c(CC=C(C)C)c2c(c1O)C(=O)C1=C[C@@H]3C[C@H]4C(C)(C)O[C@@](C/C=C(\C)C(=O)O)(C3=O)[C@@]14O2 | active |

====

Tested on: MDA-MB-435 melanoma
Experiment: NCI-60 one-dose screen, 48 h (100 = growth as untreated, 0 = no growth, -100 = all killed)
Conditions: 10 µM unless noted
About 83,000 compounds went through this panel and 20% of them were active in at least one assay; those are over-represented in the sample as a whole.

| compound | system under test | growth, % |
| --- | --- | --- |
| CS(=O)(=O)c1nccc(-c2c(-c3ccc(F)c(OCc4ccc(F)cc4)c3)nc3sccn23)n1 | MDA-MB-435 melanoma | 97.3 |
| NS(=O)(=O)Oc1ccc2nc(Nc3ccc(F)c(F)c3)ccc2c1 | MDA-MB-435 melanoma | 89 |
| O=C(CSc1nnc(-c2cccs2)n1-c1ccccc1)Nc1ccc(F)cc1 | MDA-MB-435 melanoma | 80.8 |
| Cc1cc2nc(C(Cl)Cl)nc(-c3ccco3)n2n1 | MDA-MB-435 melanoma | 89.4 |
| O=C1c2c(c3c4cccnc4[nH]c3c3ccc4ccccc4c23)C(=O)N1CCN1CCOCC1 | MDA-MB-435 melanoma | 67.7 |
| CCOC(=O)C1=C(C)N=C2Sc3ccccc3N2C1c1ccccc1 (centres undefined) | MDA-MB-435 melanoma | 102 |
| O=C(CN1C(=O)CSC1=O)Nc1ccc(C(=O)/C=C/c2cc3ccccc3nc2Cl)cc1 | MDA-MB-435 melanoma | 25.6 |
| CC(C)(C)n1nnnc1C(Nc1nccs1)c1cc2cccc3ccc4cccc1c4c32 (centres undefined) | MDA-MB-435 melanoma | 96.2 |
| CCOC(=O)c1c(NCC(=O)Nc2cccc([N+](=O)[O-])c2)sc2c1CCCC2 | MDA-MB-435 melanoma | -91.5 |
| Cc1ccc(-c2cc(-c3ccc(N(C)C)cc3)n3c(n2)nc2ccccc23)cc1 | MDA-MB-435 melanoma | 65.3 |
| CCOP(=O)(OCC)OC[C@]12CCC(C)(C)C[C@H]1C1=CC[C@@H]3[C@@]4(C)C/C(=C\c5cccnc5)[C@H](OP(=O)(OCC)OCC)C(C)(C)[C@@H]4CC[C@@]3(C)[C@]1(C)CC2 | MDA-MB-435 melanoma | 31.2 |
| CS(=O)(=O)c1nccc(-c2c(-c3ccc(F)c(OCc4ccccc4)c3)nc3sccn23)n1 | MDA-MB-435 melanoma | 101 |
| O=C1NC(=O)c2c1c1c3ccccc3ccc1c1[nH]c3ccccc3c21 | MDA-MB-435 melanoma | 9.08 |
| COc1ccc([C@H]2[C@H](O)C(=O)N2c2cc(OC)c(OC)c(OC)c2)cc1O | MDA-MB-435 melanoma | -13.1 |
| C[C@@H]1C[C@H]2C(=O)OCC(NC(=O)[C@H](Cc3cc(F)cc(F)c3)NC(=O)Nc3ccc(Cl)cc3F)C(=O)N3CCC[C@H]3C(=O)N3CCCC[C@H]3C(=O)N[C@@H](C)C(=O)N2C1 (some centres undefined) | MDA-MB-435 melanoma | 19.9 |
| O=C(Nc1ccc(Cl)cc1)Nc1nc2ccc([N+](=O)[O-])cc2s1 | MDA-MB-435 melanoma | -27.7 |
| O=C(COc1ccc(C2SCC(=O)N2c2ccc(F)cc2)cc1)c1ccccc1 (centres undefined) | MDA-MB-435 melanoma | 103 |
| COc1cc(CNC(=O)/C=C/c2ccccc2)ccc1OCC(=O)NO | MDA-MB-435 melanoma | 102 |
| NS(=O)(=O)c1ccc(Nc2nc(N/N=C/c3ccc(C(F)(F)F)cc3)nc(Nc3ccccc3)n2)cc1 | MDA-MB-435 melanoma | 19.9 |

====

Test system: DU-145 prostate
Test: NCI-60 one-dose screen, 48 h
Conditions: 10 µM unless noted
Compounds without any hit were thinned out: in the full panel of roughly 83,000, 20% have a hit. The source made the active and inactive calls. Rule for the calls: active = growth percent below 10; inactive = the rest.
Outcomes: active, inactive

| compound | assigned class |
| --- | --- |
| COc1c([C@@H](CC(C)C)OC(C)=O)ccc2c1C(=O)OCc1cc(C)cc(O)c1O2 | inactive |
| CCOc1c(C#N)c(Nc2ccc(S(N)(=O)=O)cc2)c(C#N)c2nnc(C)n12 | inactive |
| CN1C(=O)/C(=C/C=C/c2ccco2)SC1=S | inactive |
| CCOC(=O)C1=C(C)N=C2Sc3ccccc3N2C1c1ccccc1 (stereo unspecified) | inactive |
| COc1cc2c3c(n(CCCNC4CCCC4)c(=O)c2cc1OC)-c1cc2c(cc1C3=O)OCO2 | active |
| COc1ccc(NC(=O)[C@H](C)N)cc1C(=O)Nc1cccc(-c2cc(=O)c3c(OC)c(OC)c(OC)cc3o2)c1 | inactive |
| COc1ccc(/C=C/C(=O)c2nnn(-c3ccc(Br)cc3)c2C)cc1OC | inactive |
| CC(=O)NC(C)(C)C(=O)N1CCC[C@H]1C(=O)NC(C)(C)C(=O)N[C@@H](C)C(=O)NC(C)(C)C(=O)NC(C)(C)C(=O)N[C@@H](CCC(N)=O)C(=O)NC(C)(C)C(=O)N[C@H](C(=O)NC(C)(C)C(=O)NCC(=O)N[C@@H](CC(C)C)C(=O)NC(C)(C)C(=O)N1CCC[C@H]1C(=O)N[C@H](C(=O)NC(C)(C)C(=O)NC(C)(C)C(=O)N[C@@H](CCC(N)=O)C(=O)N[C@@H](CCC(N)=O)C(=O)N[C@H](CO)Cc1ccccc1)C(C)C)C(C)C | inactive |
| COc1cc2c3c(n(CCCNC4CCCCC4)c(=O)c2cc1OC)-c1cc2c(cc1C3=O)OCO2 | active |
| CS(=O)(=O)c1nccc(-c2c(-c3ccc(F)c(OCc4ccc(F)cc4)c3)nc3sccn23)n1 | active |
| O=C1Nc2ccc(Cl)cc2/C1=C/c1ccc(OCc2ccc(F)cc2)cc1 | inactive |
| O=C(CSc1ccc(-c2nc3ccccc3[nH]2)cn1)N1CCN(c2ccccc2F)CC1 | inactive |
| Cc1cc(O)c(=O)cc2c1C[C@H]1CC(C)(C)/C=C/C[C@]3(C)Oc4cc(=O)c(O)cc(C)c4C[C@H]3C[C@H](O)[C@@]1(C)O2 | inactive |
| CCOC(=O)C1=C(C)Nc2nnc(Nc3ccccc3)n2C1c1ccccc1 (stereo unspecified) | inactive |
| O=C1[C@H]2Cc3c([nH]c4ccccc34)[C@H](c3ccc(Cl)cc3)N2C(=O)CN1C1CCN(Cc2c(Cl)cccc2Cl)CC1 | inactive |
| C#CCOc1ccc(/C=N/Nc2nc(-c3cc4cc(Br)cc(Br)c4oc3=O)cs2)cc1 | inactive |
